The following binders are shown together with reported IC50 (read off the curve) values.
- ASSAYED SYSTEM: TIM-3 (antigen; species and construct not stated for the assay) (UniProt Q8TDQ0 22-202, limits assumed)
- PROCEDURE DETAILS: FACS competition binding against the parent murine ABTIM3; cells not named on the sheet

# count of solved cases: 2
BINDER	IC50 (read off the curve)
ABTIM3-hum04 (antibody, human IgG4 S228P, kappa, V domains shown, Humanized) VH: QVQLVQSGAEVKKPGASVKVSCKASGYTFTSYNMHWIRQAPGQGLEWIGDIYPGNGDTSYNQKFKGRATLTADKSTSTVYMELSSLRSEDTAVYYCARVGGAFPMDYWGQGTLVTVSS VL: DIVLTQSPDSLAVSLGERATINCRASESVEYYGTSLMQWYQQKPGQPPKLLIYAASNVESGVPDRFSGSGSGTDFTLTISSLQAEDVAVYFCQQSRKDPSTFGGGTKVEIKR	~0.2 µg/mL
ABTIM3 (antibody, V domains shown, Murine monoclonal antibody; also called murine anti-TIM-3 antibody ABTIM3; parent murine anti-TIM-3 antibody) VH: QVQLQQPGAELVKPGASVKMSCKASGYTFTSYNMHWIKQTPGQGLEWIGDIYPGNGDTSYNQKFKGKATLTADKSSSTVYMQLSSLTSEDSAVYYCARVGGAFPMDYWGQGTSVTVSS VL: DIVLTQSPASLAVSLGQRATISCRASESVEYYGTSLMQWYQQKPGQPPKLLIYAASNVESGVPARFSGSGSGTDFSLNIHPVEEDDIAIYFCQQSRKDPSTFGGGTKLEIK	~0.2 µg/mL

Moving on to the next binder.
In plain terms, ABTIM3-hum01 (antibody, human IgG4 S228P, kappa, V domains shown, Humanized) VH: QVQLVQSGAEVKKPGASVKVSCKASGYTFTSYNMHWVRQAPGQGLEWIGDIYPGNGDTSYNQKFKGRATMTADKSTSTVYMELSSLRSEDTAVYYCARVGGAFPMDYWGQGTLVTVSS VL: DIVLTQSPDSLAVSLGERATINCRASESVEYYGTSLMQWYQQKPGQPPKLLIYAASNVESGVPDRFSGSGSGTDFTLTISSLQAEDVAVYYCQQSRKDPSTFGGGTKVEIKR has a documented IC50 (read off the curve) of ~0.2 µg/mL
